Molecular target: LHGFR0N3C
Construct: FRET sensor: LhgR truncated by three C-terminal amino acids between mTFP (N-terminus) and Venus (C-terminus)
Test: FRET titration of purified sensor with L-2-HG (10 nM to 2 mM) added to filtered human serum, sensor in 50 mM Tris-HCl pH 7.4 mixed 3:1, Venus/mTFP emission ratio.
Format: binding
Conditions: SD, n = 3
observed_property: pKd
# pKd: negative log10 of molar concentration; output just the value

Q) Reported pKd for O=C(O)CC[C@H](O)C(=O)O [L-2-HG, L-2-hydroxyglutarate] : what is it?
A) 4.56

* * *

Biological target: LHGFR0N7C
Construct: FRET sensor: LhgR truncated by seven C-terminal amino acids between mTFP (N-terminus) and Venus (C-terminus)
Assay: FRET titration of purified sensor with L-2-HG (10 nM to 2 mM) added to filtered bacterial culture medium, sensor in 50 mM Tris-HCl pH 7.4 mixed 3:1, Venus/mTFP emission ratio.
Format: binding
Conditions: SD, n = 3
observed_property: pKd
# pKd: negative log10 of molar concentration; output just the value

Q) Reported pKd for O=C(O)CC[C@H](O)C(=O)O [L-2-HG, L-2-hydroxyglutarate] : what is it?
A) 5.18

* * *

Target: LHGFR0N7C
Construct: FRET sensor: LhgR truncated by seven C-terminal amino acids between mTFP (N-terminus) and Venus (C-terminus)
Experiment: FRET titration of purified sensor with L-2-HG in 50 mM Tris-HCl pH 7.4, Venus/mTFP emission ratio (excitation 430 nm, emission 528/485 nm), Hill-type fit.
Type: binding
Details: SD, n = 3; read-out: apparent dissociation constant (Kd)
observed_property: Kd (µM)
Number only, in µM; omit the unit.

Q) Request - read-out Kd | tested on LHGFR0N7C | molecule O=C(O)CC[C@H](O)C(=O)O [L-2-HG, L-2-hydroxyglutarate]
A) 7.22

* * *

Target: LHGFR0N3C
Construct: FRET sensor: LhgR truncated by three C-terminal amino acids between mTFP (N-terminus) and Venus (C-terminus)
Assay: FRET titration of purified sensor with L-2-HG (10 nM to 2 mM) added to human urine diluted with an equal volume of 50 mM Tris-HCl pH 7.4, mixed 3:1, Venus/mTFP emission ratio.
Assay type: binding
Details: SD, n = 3
observed_property: pKd
# pKd: negative log10 of molar concentration; output just the value

Q) Request - read-out pKd | tested on LHGFR0N3C | compound O=C(O)CC[C@H](O)C(=O)O [L-2-HG, L-2-hydroxyglutarate]
A) 4.53
